tested on: NCI-H23 lung; assay: NCI tumour cell line growth inhibition, 48 h
quantity_name: GI50

Sample CC(C)N(C(C)C)[PH+]1O[PH+](N(C(C)C)C(C)C)O[PH+](N(C(C)C)C(C)C)O[PH+](N(C(C)C)C(C)C)O[PH+](N(C(C)C)C(C)C)O1.[C-]#[O+].[C-]#[O+].[C-]#[O+].[C-]#[O+].[C-]#[O+].[C-]#[O+].[C-]#[O+].[Cr].[Cr] (stereo not given) ; GI50 observed: > 100 µM

GI50 recorded for this molecule, COc1cc(/C=C2\CN(C)CC3=C2Nc2nc(SC)[nH]c(=O)c2C3c2cc(OC)c(OC)c(OC)c2)cc(OC)c1OC (stereo not given) , is 3.54 µM

Form field GI50, entry COc1ccc(OC)c(-c2cc(-c3ccccc3)nn2-c2ccc(S(=O)(=O)NC(C)=O)cc2)c1 : 8.24 µM

The reported GI50 of the molecule Cc1ccc(C(=O)/C(=C/c2ccc([N+](=O)[O-])cc2)S(=O)Cc2ccccc2)cc1 (stereo not given) was 1.86 µM

What the record says about NS(=O)(=O)c1ccc(N2Cc3cc(Cl)ccc3OC3=C2C(=O)N(CC2CCCCC2)C3=O)cc1 : GI50 is 1.64 µM

Given item S=C(N/N=C/c1cc(Cl)cc(Cl)c1)NC12CC3CC(CC(C3)C1)C2 , the value recorded as its GI50 is 10.6 µM

GI50 in this record for O=C1/C(=C/c2ccc(Cl)cc2)CCCc2ccc(F)cc21 : 36.7 µM

// CC(=O)c1cccc(N(/C=C/C(=O)C(F)(F)F)CC(=O)c2ccc(Cl)cc2)c1 : GI50 value = > 100 µM

Consider COc1ccc(-n2nnc3c(sc4ccccc43)c2=O)cc1 . Its measured GI50 is > 100 µM

Noted for Clc1ccc(COC(Cn2ccnc2)c2ccc(Cl)cc2Cl)cc1 (stereo not given) : its GI50 reads 2.08 µM

----------
Recorded below: GI50, system NCI-H460 lung.

Measured GI50 of Cn1cc(C2=C(c3cn(C)c4ccc(N)cc34)C(=O)NC2=O)c2ccccc21 : 9530 nM

For record Nc1cc(N)c2nc(-c3ccccc3)c(Oc3ccc(F)cc3)nc2c1 the listed GI50 is 39600 nM

Lab note: measured GI50 of COc1ccc(C(=O)N2c3ccccc3Sc3ccccc32)c(F)c1 was 485 nM

Entry COc1cc(-c2csc(NC(=O)c3cc(C(F)(F)F)cc(C(F)(F)F)c3)n2)cc(OC)c1OC ; GI50 = 2970 nM

Per the records, this compound ( CCOC(=O)c1c(NC(=O)c2ccc(C(C)C)cc2)sc2c(CN(C)C)c(O)ccc12 ) has GI50 equal to 1880 nM

----------
test system: RXF 393 renal; assay: NCI tumour cell line growth inhibition, 48 h; in the data active = GI50 below about 0.43 µM; inactive = the rest
Answer with one of the outcomes Yes for active, No for inactive

Prompt line: Recorded test call requested for COc1cc(Nc2ccnc(N3CCN(c4ccnc5cc(Cl)ccc45)CC3)n2)cc(OC)c1
Response line: No

Prompt line: Could you please tell me the result logged for Fc1cccc(COc2ccc(Nc3ncnc4sc(-c5ccco5)cc34)cc2Cl)c1 in this assay?
Response line: No

Prompt line: # outcome recorded in this test, key = C[n+]1cc2c3c(ccc2c2ccc4cc5c(cc4c21)OCO5)OCO3
Response line: Yes

Prompt line: Hey, what did the test say about CCN(CCCCCCCCCCN1CC(=O)N(CCCCCCCCCCN(CC)Cc2ccccc2OC)CC1=O)Cc1ccccc1OC ?
Response line: No

----------
test system: HCT-116 colon; assay: NCI tumour cell line growth inhibition, 48 h
quantity_name: TGI

Entry C[C@H](c1ccccc1)N1C(=O)[C@@H](OCc2ccccc2)[C@H]1[C@H](COC(=O)COCc1ccccc1)OCc1ccccc1 ; TGI = > 100 µM

The compound listed as CC1(C)C(=O)C(O)=CC2C1=CCC1C2(C)C(=O)CC2(C)C(C(C)(O)C(=O)CC(O)C(C)(C)O)C(O)CC12C (stereo unspecified) has a reported TGI of 33.7 µM

# TGI of CCc1nc(N)nc(N)c1-c1ccc([N+](=O)[O-])c(NCc2ccccc2)c1 = > 47.3 µM

TGI recorded for this compound, O=c1nc(-c2ccccc2)c2c3c(cccn13)CCC2 , is > 100 µM

GET /value?item= Nc1nncc2[nH]cnc12 &field=TGI returns > 100 µM

Lab note: measured TGI of N#C/C(=C\c1cccc(Br)c1)c1nc2ccccc2c(=O)[nH]1 was > 100 µM

----------
test system: SK-MEL-5 melanoma; assay: NCI tumour cell line growth inhibition, 48 h; in the data active = GI50 below about 0.43 µM; inactive = the rest
Output constraint: value belongs to active, inactive

Prompt line: I'd appreciate the recorded outcome for O=C(Nc1ccc(OC(F)(F)F)cc1)c1sccc1NCc1ccnc2ccccc12 from this test.
Response line: inactive

Prompt line: Could you please tell me the result logged for COC(=O)C1=C(OC(=O)c2ccc(Cl)cc2)C(C(=O)OC)[C@@]2(O)[C@@H](C(=O)OC)C(c3ccccc3C(F)(F)F)C[C@@H]1[C@@H]2C(=O)OC (stereo partly drawn) in this assay?
Response line: inactive

Prompt line: Please let me know the test result on file for NS(=O)(=O)c1ccc(N2Cc3cc(Cl)ccc3OC3=C2C(=O)N(CC2CCCCC2)C3=O)cc1 .
Response line: inactive

Prompt line: What did this assay record as the result for C[C@]12CC[C@@H]3c4ccc(O)c([N+](=O)[O-])c4CC[C@H]3[C@@H]1CC[C@@H]2NS(=O)(=O)c1ccc(C(F)(F)F)cc1 ?
Response line: inactive

Prompt line: Could you check what this test reported for CNC(=O)Nc1ccc(-c2nc(N3CCOCC3)nc3c2cnn3C2CCOCC2)cc1 ?
Response line: active

Prompt line: What did this assay record as the result for Cc1cc(N(CCNc2ccnc3cc(Cl)ccc23)Cc2ccc3c(c2)OCO3)nc(N2CCN(C)CC2)n1 ?
Response line: inactive

Prompt line: Tell me the recorded outcome of this test for O=C1/C(=C/c2ccc(Cl)cc2)CCCc2ccc(F)cc21 .
Response line: inactive

Prompt line: Recorded test call requested for COc1ccc(Cl)cc1Nc1nc(C(F)(F)F)ccc1C(=O)NN
Response line: inactive

Prompt line: Can you look up the reported call for CCN(CCCCCCCCCCN1CC(=O)N(CCCCCCCCCCN(CC)Cc2ccccc2OC)CC1=O)Cc1ccccc1OC for me?
Response line: inactive

Prompt line: Status in this test for CC(=O)c1cccc(N(/C=C/C(=O)C(F)(F)F)CC(=O)c2ccc(Cl)cc2)c1 ?
Response line: inactive

Prompt line: Assay outcome for Fc1cccc(COc2ccc(Nc3ncnc4sc(-c5ccco5)cc34)cc2Cl)c1 : what was it?
Response line: inactive

Prompt line: Assay result, entry COc1ccc2nc(-c3ccccc3)cc(Nc3cccc(/C(C)=N\O)c3)c2c1 — outcome?
Response line: inactive

Prompt line: Hi, do you know how Nc1cc(N)c2nc(-c3ccccc3)c(Oc3ccc(F)cc3)nc2c1 came out in this test?
Response line: inactive

----------
test system: MDA-MB-435
Mark one answer only. Choices: yes for active, no for inactive

Prompt line: Hi team, can someone confirm the assay call for C#C[C@]1(O)CC[C@H]2[C@@H]3CC=C4c5nc(Nc6ccccn6)sc5CC[C@]4(C)[C@H]3CC[C@@]21C ?
Response line: no

Prompt line: Which outcome was entered for the compound S=C(N/N=C/c1cc(Cl)cc(Cl)c1)NC12CC3CC(CC(C3)C1)C2 in this test?
Response line: no

Prompt line: Which result was noted for this compound in the test: C[C@]12CC[C@@H]3c4ccc(O)c([N+](=O)[O-])c4CC[C@H]3[C@@H]1CC[C@@H]2NS(=O)(=O)c1ccc(C(F)(F)F)cc1
Response line: no

Prompt line: Recorded call for COc1cc(-c2csc(NC(=O)c3cc(C(F)(F)F)cc(C(F)(F)F)c3)n2)cc(OC)c1OC ?
Response line: no

Prompt line: What call does the record list for C[n+]1cc2c3c(ccc2c2ccc4cc5c(cc4c21)OCO5)OCO3 ?
Response line: yes

Prompt line: For this compound, state the assay outcome: CC1(C)N=C(N)N=C(N)N1c1ccc(CCc2ccccc2)c(Cl)c1
Response line: yes

Prompt line: For N/C(=N\OC(=O)c1ccccc1)C(C(=O)NOC(=O)c1ccccc1)C1CCCCC1 (stereo not drawn) , which call appears in the assay record?
Response line: no

Prompt line: Can you look up the reported call for C/C(=N\O)c1ccc(Nc2cc(-n3nnc4ccccc43)nc3ccccc23)cc1 for me?
Response line: no

----------
tested on: DU-145 prostate; test: NCI tumour cell line growth inhibition, 48 h
quantity_name: TGI

C[N+]1(CCN=C=NC2CCCCC2)CCOCC1 yielded TGI of > 100 µM

Entry CCCCCCCCCCCCNC(=O)CCC(NC(=O)c1ccc(N(C)Cc2cnc3nc(N)nc(N)c3n2)cc1)C(=O)NCCCCCCCCCCCC (configuration not stated) — recorded TGI = > 100 µM

The reported TGI of the compound CC[C@H](C)[C@H](NC(=O)c1cnccn1)C(=O)N(C)[C@H](C[C@@H](OC(C)=O)c1nc(C(=O)N[C@@H](Cc2ccccc2)C[C@H](C)C(=O)OC)cs1)C(C)C was > 33.3 µM

CCOc1ccc(N=Nc2ccc3cc(/C(C)=N/NC(=O)/C(C#N)=C\c4ccc(N(CCC#N)CCC#N)cc4)c(=O)oc3c2)cc1 yielded TGI of > 10 µM

Reported TGI ( COc1ccc(Cl)cc1Nc1nc(C(F)(F)F)ccc1C(=O)NN ) = > 20.2 µM

get_value(item= C[C@H](c1ccccc1)N1C(=O)[C@@H](OCc2ccccc2)[C@H]1[C@H](COC(=O)COCc1ccccc1)OCc1ccccc1 , readout=TGI) returns > 100 µM

Noted for O=P1(C(O)/C=C/c2ccccc2)N(Cc2ccccc2)[C@@H]2CCCC[C@H]2N1Cc1ccccc1 (some centres not stated) : its TGI reads 45.3 µM

Consider C=C1C[C@@H]2CC[C@@]34C[C@H]5O[C@H]6[C@@H](O3)[C@H]3O[C@H](CC[C@@H]3O[C@H]6[C@H]5O4)CC(=O)C[C@@H]3[C@@H](OC)[C@@H](C[C@H](O)CN)O[C@H]3C[C@H]3O[C@@H](CC[C@@H]1O2)C[C@@H](C)C3=C . Its measured TGI is 0.0241 µM

TGI for CON(C)C(=O)C(C)NC(=O)OCc1ccccc1 (configuration not stated) is > 100 µM

The compound listed as COC(=O)C1=C(C)NC(C)=C(C(=O)OC)C1c1cccc(N=O)c1 shows TGI equal to 29.7 µM

So, O=C(O)C1=NN(c2ccc(S(=O)(=O)O)cc2)C2(C1)C(Cl)C(=O)N2c1nc2ccccc2s1 (configuration not stated) ? Its TGI was 55.9 µM

The recorded TGI for entry COc1cc(OC)cc(Oc2nc3cc(F)c(F)cc3nc2-c2ccccc2)c1 equals > 100 µM

TGI reported for this compound CC1CCc2sc3nc4n(c(=O)c3c2C1)CC(C)S4 (configuration not stated) : > 100 µM

Entry C/C(=N\O)c1ccc(Nc2cc(-n3nnc4ccccc43)nc3ccccc23)cc1 ; TGI = 30 µM

Query Cc1ccc(C(=O)Cc2nc3c([nH]c2=O)c(C)nn3-c2ccccc2)c(C)c1 yields TGI of > 10 µM

Kindly note the recorded TGI for Cc1cccc(NC(=O)c2sc3nc4c(cc3c2N)CCCC4)c1C , which is > 100 µM

Recorded result, COc1ccc(C2=C(Cl)C(=O)O/C2=C\c2ccc(OC)c(Br)c2)cc1Cl , TGI: > 100 µM

Taken from PubChem BioAssay (NCI).
